Assay: Log of (Cbrain/Cblood) in rats
Conditions: rat, in vivo
valueKind: Kp

Recorded results for 5 compounds are shown here.
1. CC(=O)Nc1cccc(-c2csc(N=C(N)N)n2)c1 ... 0.018
2. c1ccc(NCCCOc2cccc(CN3CCCCC3)c2)nc1 ... 4.85
3. CC/N=C(\NC#N)NCCSCc1ncccc1Br ... 0.00753
4. O=[N+]([O-])c1cc[nH]c1NCCSCc1ccccn1 ... 0.18
5. O=C(NCCCOc1cccc(CN2CCCCC2)c1)c1ccccc1 ... 0.58

1. CC(=O)NCCCOc1cccc(CN2CCCCC2)c1
2. CN/C(=C\[N+](=O)[O-])NCCSCc1ccc(CN(C)C)o1 [RANITIDINE]
3. c1cc(CN2CCCCC2)cc(OCCCNc2nccs2)c1
4. CN(C)Cc1ccc(CSCCNc2[nH]cc(Cc3ccccc3)c2[N+](=O)[O-])o1
Query: Sort (4 compounds) by Kp: min first. Rank the items, then write their labels in that order.
Result: 2, 4, 1, 3

a. CN(C)Cc1ccnc(-c2cccc(Nc3[nH]ccc3[N+](=O)[O-])c2)c1
b. c1cc(CN2CCCCC2)cc(OCCCNc2nc3ccccc3o2)c1
Query: Dear colleague, could you let me know whether a or b has the lower recorded Kp? Thanks. Reply briefly: the label of your chosen item.
Result: a
(a: 0.454, b: 1.42)

I. c1cc(CN2CCCCC2)cc(OCCCNc2nc3ccccc3s2)c1 [ZOLANTIDINE]
II. Cc1csc(N=C(N)N)n1
Query: Quick one: lower Kp, I or II ? When you have decided, please share the label of that item.
Result: II
(II: 0.873, I: 1.38)

###

Test: Logarithm of partition coefficient of the neutral form of compound given for octanol/water solvent system
Format: physicochemical
valueKind: logP
// print number alone

Query: Look up and report measured logP for this entry: `COc1cccnc1CCCCNc1ncc(Cc2ccc(C)nc2)c(=O)[nH]1`
Result: 2.58

###

Molecular target: UniProt:P47747
Experiment: In vitro Histamine H2 receptor antagonist activity in the histamine-stimulated guinea pig right atrium
Assay type: functional, tissue-based
Details: Cardiac atrium
valueKind: -Log KB

1. CN(C)c1cc(-c2n[nH]c(N)n2)ccn1 ... 5.59
2. O=[N+]([O-])c1cc[nH]c1NCCSCc1ncccc1Br ... 7.24

1. CS(=O)(=O)NCCCOc1cccc(CN2CCCCC2)c1
2. Cc1ccc(Cc2c[nH]c(NCCSCc3ccc(CN(C)C)o3)nc2=O)cn1
Query: Which is greater in -Log KB, the first item 1 or the second item 2 ? // caller expects the label of the chosen entry
Result: 2

###

Test: Log of (Cbrain/Cblood) in rats
Conditions: rat, brain and blood
valueKind: Kp

Illustrative cases are given below, each with its answer.
1) Cc1ccc(Cc2c[nH]c(NCCSCc3ccc(CN(C)C)o3)nc2=O)cn1 [LUPITIDINE] ... 0.0884
2) CN(C)Cc1ccc(CSCCNc2[nH]ccc2[N+](=O)[O-])o1 ... 0.0652
3) O=[N+]([O-])c1cc[nH]c1NCCSCc1ncccc1Br ... 0.214
4) O=[N+]([O-])c1c(Cc2ccccc2)c[nH]c1NCCSCc1ccccn1 ... 0.724
5) CN(C)Cc1ccc(-c2cccc(Nc3[nH]ccc3[N+](=O)[O-])c2)o1 ... 0.545

1. C/N=C(\NC#N)Nc1cccc(-c2csc(N=C(N)N)n2)c1
2. NC(N)=Nc1nc(-c2ccccc2)cs1
3. N=C(N)Nc1nc(-c2cccc(N)c2)cs1
Query: Ordering: ascending Kp. Sort and list the labels as requested.
Result: 1, 3, 2
(1: 0.0293, 3: 0.0705, 2: 0.66)

###

Experiment: Log (Cbrain/Cblood) in rats
Conditions: rat, in vivo
valueKind: Kp

The cases that follow already have their Kp on record.
1. O=C(NCCCOc1cccc(CN2CCCCC2)c1)c1ccccc1 ... 0.575
2. CN(C)Cc1ccc(CSCCNc2[nH]cc(Cc3ccccc3)c2[N+](=O)[O-])o1 ... 0.186
3. CC(=O)Nc1cccc(-c2csc(N=C(N)N)n2)c1 ... 0.0269
4. CC/N=C(\NC#N)NCCSCc1ncccc1Br ... 0.00708
5. CN/C(=C\[N+](=O)[O-])NCCSCc1ccc(CN(C)C)o1 ... 0.0589

P. CC(=O)NCCCOc1cccc(CN2CCCCC2)c1
Q. Cc1csc(N=C(N)N)n1
R. c1ccc(NCCCOc2cccc(CN3CCCCC3)c2)nc1
Query: List these items ordered by Kp, big to small. Give the labels in the order specified.
Result: R, Q, P
(R: 4.9, Q: 0.912, P: 0.347)

P. CN(C)Cc1ccnc(-c2cccc(Nc3[nH]ccc3[N+](=O)[O-])c2)c1
Q. c1cc(CN2CCCCC2)cc(OCCCNc2nccs2)c1
Query: Compare the recorded Kp of P and Q ; state which is larger. API: response body contains the label of the selected item.
Result: Q

###

Assay: Change in logarithm of partition coefficient of the compound
Assay type: physicochemical
Conditions: octanol/water
valueKind: delta Log P

Below, 3 compounds whose answers are already recorded.
1. Cc1ccc(Cc2c[nH]c(NCCSCc3ccc(CN(C)C)o3)nc2=O)cn1 ... 3.81
2. C/N=C(\NC#N)Nc1cccc(-c2csc(N=C(N)N)n2)c1 ... 4.26
3. CN(C)Cc1ccc(CSCCNc2[nH]cc(Cc3ccccc3)c2[N+](=O)[O-])o1 ... 2.54

P. Cc1csc(N=C(N)N)n1
Q. c1ccc(NCCCOc2cccc(CN3CCCCC3)c2)nc1
R. O=C(NCCCOc1cccc(CN2CCCCC2)c1)c1ccccc1
Query: Sort (3 compounds) by delta Log P: min first. Answer by listing the labels in the order asked for.
Result: Q, R, P

###

Test: Log (Cbrain/Cblood) in rats
Details: rat, brain and blood
valueKind: Kp

Worked set:
1) CN(C)Cc1ccc(-c2cccc(Nc3[nH]ccc3[N+](=O)[O-])c2)o1 ... 0.537
2) Cc1ccc(Cc2c[nH]c(NCCSCc3ccc(CN(C)C)o3)nc2=O)cn1 [LUPITIDINE] ... 0.0871
3) O=[N+]([O-])c1c(Cc2ccccc2)c[nH]c1NCCSCc1ccccn1 ... 0.759
4) N=C(N)Nc1nc(-c2cccc(N)c2)cs1 ... 0.0708
5) CN(C)c1cc(-c2n[nH]c(N)n2)ccn1 ... 0.0676

a. CN(C)Cc1ccc(CSCCNc2[nH]ccc2[N+](=O)[O-])o1
b. NC(N)=Nc1nc(-c2ccccc2)cs1
c. C/N=C(\NC#N)Nc1cccc(-c2csc(N=C(N)N)n2)c1
d. O=[N+]([O-])c1cc[nH]c1NCCSCc1ncccc1Br
Query: Write the entries in order, lowest recorded Kp first. Order the labels as requested and list them.
Result: c, a, d, b

###

Molecular target: Histamine H2 receptor (Cavia porcellus) (UniProt P47747)
Sequence (P47747 whole entry): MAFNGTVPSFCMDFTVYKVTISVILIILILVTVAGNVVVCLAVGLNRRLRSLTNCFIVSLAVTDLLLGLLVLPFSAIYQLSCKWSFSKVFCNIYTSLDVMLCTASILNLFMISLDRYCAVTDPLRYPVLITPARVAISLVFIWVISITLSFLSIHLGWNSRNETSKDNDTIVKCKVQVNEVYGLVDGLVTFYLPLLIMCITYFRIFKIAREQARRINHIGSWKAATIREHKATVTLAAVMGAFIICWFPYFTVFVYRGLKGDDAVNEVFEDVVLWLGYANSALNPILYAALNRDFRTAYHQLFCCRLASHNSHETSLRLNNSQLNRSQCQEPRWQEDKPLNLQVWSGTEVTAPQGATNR
Assay: In vitro Histamine H2 receptor antagonist activity in the histamine-stimulated guinea pig right atrium
Assay type: functional, tissue-based
Conditions: Cardiac atrium
valueKind: -Log KB

1. c1cc(CN2CCCCC2)cc(OCCCNc2ccc3ccccc3n2)c1 ... 6.21
2. CC(=O)NCCCOc1cccc(CN2CCCCC2)c1 ... 7.79
3. Cc1[nH]cnc1CSCCNc1[nH]ccc1[N+](=O)[O-] ... 7.31
4. c1cc(CN2CCCCC2)cc(OCCCNc2nc3ccccc3o2)c1 ... 7.19
5. CN(C)Cc1ccc(CSCCNc2[nH]cc(Cc3ccccc3)c2[N+](=O)[O-])o1 ... 7.35
6. O=[N+]([O-])c1cc[nH]c1NCCSCc1nccc2ccccc12 ... 6.84
7. c1ccc(NCCCOc2cccc(CN3CCCCC3)c2)cc1 ... 5.7
8. CN(C)Cc1ccnc(-c2cccc(Nc3[nH]ccc3[N+](=O)[O-])c2)c1 ... 6.6

###

Experiment: Partition coefficient (Log Pn, neutral form, cyclohexane/water)
Type: ADME
valueKind: Log Pn

1) c1ccc(NCCCOc2cccc(CN3CCCCC3)c2)nc1 ... 3.23
2) CN(C)Cc1ccc(CSCCNc2[nH]cc(Cc3ccccc3)c2[N+](=O)[O-])o1 ... 1.11

a. OCCCOc1cccc(CN2CCCCC2)c1
b. O=[N+]([O-])c1cc[nH]c1NCCSCc1ncccc1Br
c. CN(C)Cc1ccc(-c2cccc(Nc3[nH]ccc3[N+](=O)[O-])c2)o1
d. O=[N+]([O-])c1cc[nH]c1NCCSCc1nccc2ccccc12
e. N=C(N)Nc1nc(-c2cccc(N)c2)cs1
Query: Returns the items ordered by Log Pn, from maximum to minimum. Lab note: final answer is the ordered label list.
Result: a, c, d, b, e
(a: 1.31, c: 0.22, d: -0.67, b: -1.34, e: -3.19)

###

Target: Histamine H2 receptor (Cavia porcellus) (UniProt P47747)
Test: In vitro Histamine H2 receptor antagonist activity in the histamine-stimulated guinea pig right atrium
Format: functional, tissue-based
Conditions: Cardiac atrium
valueKind: -Log KB

1) NCCCOc1cccc(CN2CCCCC2)c1 ... 5.19
2) C/N=C(\NC#N)Nc1cccc(-c2csc(N=C(N)N)n2)c1 ... 7.84
3) O=[N+]([O-])c1cc[nH]c1NCCSCc1ccccn1 ... 6.7
4) O=C(NCCCOc1cccc(CN2CCCCC2)c1)c1ccccc1 ... 7.79
5) Cc1csc(N=C(N)N)n1 ... 6.27
6) CN(C)Cc1ccc(-c2cccc(Nc3[nH]ccc3[N+](=O)[O-])c2)o1 ... 6.02
7) CN(C)Cc1ccc(CSCCNc2[nH]ccc2[N+](=O)[O-])o1 ... 6.63
8) c1cc(CN2CCCCC2)cc(OCCCNc2nccs2)c1 ... 7.41
9) c1cc(CN2CCCCC2)cc(OCCCNc2nc3ccccc3s2)c1 [ZOLANTIDINE] ... 7.46
10) N=C(N)Nc1nc(-c2cccc(N)c2)cs1 ... 7.33
11) CC(=O)Nc1cccc(-c2csc(N=C(N)N)n2)c1 ... 7.36
12) CN/C(=C\[N+](=O)[O-])NCCSCc1ccc(CN(C)C)o1 ... 7.05
13) CC/N=C(\NC#N)NCCSCc1ncccc1Br ... 6.5
14) O=[N+]([O-])c1c(Cc2ccccc2)c[nH]c1NCCSCc1ccccn1 ... 6.97
15) N=C(N)Nc1nc(-c2ccccc2)cs1 ... 5.93
16) c1ccc(NCCCOc2cccc(CN3CCCCC3)c2)nc1 ... 6.09
